I'd be grateful if you could share measured pest or weed control at 1280 g/ha for these entries.
System: MATIN
Assay: Pre-emergence action against MATIN, 1280 g/ha
Type: in vivo, Tripleurospermum inodorum (Matricaria inodora)
Conditions: Tripleurospermum inodorum, 504 h, scored visually after about 3 weeks vs untreated controls (100% = plants have died)
Please don't drop the unit; write it after the number.

Inquiry: Reported pest or weed control at 1280 g/ha, compound O=C(O)COc1nn(-c2ccccc2F)c(-c2ccc(F)nc2)c1Br [VII-003] : ____
Reply text: 100%

Inquiry: Same again, this time with CCOC(=O)COc1nn(-c2ccccc2F)c(-c2ccnnc2)c1C#N [IV-003]
Reply text: 90%

Inquiry: Same again, this time with COC(=O)C(C)Oc1nn(-c2ccccc2)c(-c2ccc(F)nc2)c1Cl (centres unmarked) [VII-023]
Reply text: 90%

Inquiry: Same again, this time with CCOC(=O)COc1nn(-c2ccccc2F)c(-c2ccc(F)nc2)c1Br [VII-012]
Reply text: 100%

Inquiry: Same again, this time with COC(=O)COc1nn(-c2ccccc2F)c(-c2cncnc2)c1Br [VI-004]
Reply text: 100%

====

Tested on: AMARE
Assay: Pre-emergence action against AMARE, 1280 g/ha
Type: in vivo, Amaranthus retroflexus
Details: scored visually after about 3 weeks vs untreated controls (100% = plants have died)
I'd be grateful if you could share measured Pre-emergence action against AMARE for these entries.

Inquiry: Reported Pre-emergence action against AMARE, molecule COC(=O)COc1nn(-c2ccccc2F)c(-c2ccc(F)nc2)c1SC : ____
Reply text: 90%

Inquiry: Same again, this time with O=C(O)COc1nn(-c2ccc(F)cc2)c(-c2ccc(F)nc2)c1C(F)(F)F
Reply text: 90%

Inquiry: Same again, this time with O=C(COc1nn(-c2ccccc2F)c(-c2ccc(F)nc2)c1Br)OCC1OCCO1
Reply text: 100%

Inquiry: Same again, this time with COC(=O)[C@@H](C)Oc1nn(-c2cc(F)ccc2F)c(-c2cncc(F)c2)c1C#N
Reply text: 100%

Inquiry: Same again, this time with COC(=O)CNC(=O)COc1nn(-c2ccc(F)cc2)c(-c2ccc(F)nc2)c1C(F)(F)F
Reply text: 90%

Inquiry: Same again, this time with O=C(O)C1CCCN(C(=O)COc2nn(-c3ccccc3F)c(-c3cncc(F)c3)c2Br)C1 (centres unmarked)
Reply text: 90%

Inquiry: Same again, this time with COC(=O)COc1nn(-c2ccccc2F)c(-c2ccc(F)nc2)c1C(F)(F)F
Reply text: 100%

Inquiry: Same again, this time with COC(=O)CNC(=O)COc1nn(-c2ccccc2F)c(-c2ccc(F)cn2)c1Br
Reply text: 90%

Inquiry: Same again, this time with COC(=O)[C@@H](C)Oc1nn(-c2ccccc2F)c(-c2cnc(F)c(F)c2)c1Br
Reply text: 100%

Inquiry: Same again, this time with N#CCCOC(=O)COc1nn(-c2ccccc2F)c(-c2ccc(F)nc2)c1Br [VII-110]
Reply text: 100%

Inquiry: Same again, this time with COC(=O)C(C)Oc1nn(-c2ccccc2)c(-c2ccc(Cl)nc2)c1Cl (centres unmarked)
Reply text: 90%

====

System: AMARE
Experiment: Post-emergence action at 320 g/ha against AMARE
Format: in vivo, Amaranthus retroflexus
Conditions: visual rating about 3 weeks after treatment vs untreated controls
Source text: Accordingly, the compounds of the invention have good herbicidal action against a broad spectrum of weed grasses and broad-leaved weeds and are therefore suitable for controlling unwanted vegetation by the post-emergence method. • b) Seeds of monocotyledonous and dicotyledonous weeds and crop plants are placed in sandy loam in plastic or organic planting pots, covered with soil and cultivated in a greenhouse under controlled growth conditions. […]
I'd be grateful if you could share measured Post-emergence action against AMARE in % for these entries.
Numeric answer only, unit % assumed.

Inquiry: Reported Post-emergence action against AMARE in %, molecule O=C(O)COc1nn(-c2ccccc2F)c(-c2ccnc(F)c2)c1Br : ____
Reply text: 90

Inquiry: Same again, this time with C[C@@H](Oc1nn(-c2ccccc2F)c(-c2cncnc2)c1Br)C(=O)O
Reply text: 80

Inquiry: Same again, this time with COC(=O)[C@@H](C)Oc1nn(-c2cc(F)ccc2F)c(-c2cncc(F)c2)c1Br
Reply text: 90

Inquiry: Same again, this time with COC(=O)[C@@H](C)Oc1nn(-c2ccccc2F)c(-c2ccnc(F)c2)c1Br
Reply text: 80

Inquiry: Same again, this time with COC(=O)COc1nn(-c2ccccc2F)c(-c2ccc(F)nc2)c1C(F)(F)F
Reply text: 90

Inquiry: Same again, this time with COC(=O)[C@@H](C)Oc1nn(-c2ccccc2)c(-c2cccnc2)c1Br
Reply text: 90

Source: patent US12180187B2
